- System: SMN2-linked luciferase-reporter gene construct
- Method description: SMN splice reporter assay (SMN2-linked luciferase reporter, Example 10)
- Format: cell-based
- Assay conditions: SMN2-linked luciferase reporter, average
Strictly below 4 µM in EC50: Met. Otherwise: Not met.

{"Compound": "CC(C)c1ccc(N2Cc3ccc(Br)cc3C2=O)cc1", "Group": "Met"}
{"Compound": "CCOC(=O)C(C)c1ccc(N2Cc3ccccc3C2=O)cc1 (stereo not shown)", "Group": "Met"}
{"Compound": "Cc1ccc(N2Cc3ccccc3C2=O)cc1C", "Group": "Met"}
{"Compound": "CC(C(=O)O)c1ccc(N2Cc3cccc(Br)c3C2=O)cc1 (stereo not shown)", "Group": "Not met"}
{"Compound": "CC(C)c1ccc(N2Cc3ccc4c(c3C2=O)OCCO4)cc1", "Group": "Met"}

Moving on to the next compound.
QUERY: I wonder whether CC(C(=O)OC(C)(C)C)c1ccc(N2Cc3ccc(NS(C)(=O)=O)cc3C2=O)cc1 (stereo not shown) has EC50 below 4 µM. Can you tell?
RESULT: Met

====

- System: SMN2-linked luciferase-reporter gene construct
- Method description: SMN splice reporter assay (SMN2-linked luciferase reporter, Example 10)
- Assay type: cell-based
- Assay conditions: SMN2-linked luciferase reporter, average
Threshold 300 nM: EC50 strictly smaller gives criterion met, otherwise criterion not met.

Worked examples follow.
{"Molecule": "COc1ccc2c(c1)C(=O)N(c1ccc(C3CC3)cc1)C2 [ALB-115803]", "Group": "criterion met"}
{"Molecule": "O=C1c2ccccc2CN1c1ccc(C2CC2)cc1 [ALB-115802]", "Group": "criterion met"}
{"Molecule": "CC(C)c1ccc(N2Cc3cc(Cl)ccc3C2=O)cc1 [ALB-116932]", "Group": "criterion met"}
{"Molecule": "CC(C)c1ccc(N2Cc3cc4c(cc3C2=O)OCO4)cc1 [ALB-116362]", "Group": "criterion met"}

QUERY: State whether 300 nM exceeds EC50 recorded for CC(C(=O)OC(C)(C)C)c1ccc(N2Cc3cc(Cl)ccc3C2=O)cc1 (stereo not shown) [ALB-111761] .
RESULT: criterion not met

QUERY: Below 300 nM on EC50? Entry CCC(C(=O)OC(C)(C)C)c1ccc(N2Cc3ccccc3C2=O)cc1 (stereo not shown) [ALB-112364]
RESULT: criterion not met

QUERY: Is the reported EC50 for CN(C)Cc1ccc(N2Cc3ccccc3C2=O)cc1 [ALB-116255] strictly below 300 nM?
RESULT: criterion met

QUERY: Criterion: EC50 strictly below 300 nM. Is it met by COc1cc2c(cc1F)CN(c1ccc(C(C)C(=O)O)cc1)C2=O (stereo not shown) [ALB-119048] ?
RESULT: criterion met

QUERY: Problem: For the molecule C=Cc1ccc2c(c1)C(=O)N(c1ccc(C(C)C(=O)OC(C)(C)C)cc1)C2 (stereo not shown) [ALB-113210] , is EC50 under 300 nM?
RESULT: criterion not met

QUERY: Find out if reported EC50 for COc1ccc2c(c1)C(=O)N(c1ccc(C(C)(C)C)cc1)C2 [ALB-115210] is less than 300 nM
RESULT: criterion not met

====

- Tested on: SMN2-linked luciferase-reporter gene construct
- Method description: SMN splice reporter assay (SMN2-linked luciferase reporter, Example 10)
- Assay type: cell-based
- Assay conditions: SMN2-linked luciferase reporter, average
- Excerpt: Cervical carcinoma cell lines were transformed with a SMN2-linked luciferase-reporter gene construct. The reporter is designed to detect shifts in the alternative splicing of SMN2 sequences. […] Luciferase sequences are in the correct translational reading frame only when the SMN2 sequences are spliced according to the normal SMN1 mechanism (e.g., splicing to include exon 7), which allows for translation of the stable SMN protein. […]
We label by threshold. Values of EC50 strictly beneath 200 nM are satisfied. Values of 200 nM and up are not satisfied.

{"Molecule": "CC(C)c1ccc(N2Cc3ccc(C(F)(F)F)cc3C2=O)cc1", "Group": "not satisfied"}
{"Molecule": "CC(C)c1ccc(N2Cc3ccc(N)cc3C2=O)cc1", "Group": "satisfied"}
{"Molecule": "CC(C(=O)O)c1ccc(N2Cc3c(Br)cccc3C2=O)cc1 (stereo not shown)", "Group": "not satisfied"}
{"Molecule": "COCC(C)c1ccc(N2Cc3ccc(C)cc3C2=O)cc1 (stereo not shown)", "Group": "satisfied"}
{"Molecule": "CC(C(N)=O)c1ccc(N2Cc3ccccc3C2=O)cc1 (stereo not shown)", "Group": "not satisfied"}

QUERY: Threshold test, EC50 < 200 nM: COCc1ccc2c(c1)C(=O)N(c1ccc(C(C)C(=O)O)cc1)C2 (stereo not shown)
RESULT: satisfied

QUERY: Given CC(CF)c1ccc(N2Cc3ccccc3C2=O)cc1 (stereo not shown) , is recorded EC50 strictly lower than 200 nM?
RESULT: not satisfied

QUERY: is_below(EC50, 200 nM) for CNc1ccc2c(c1)C(=O)N(c1ccc(C(C)C(=O)OC(C)(C)C)cc1)C2 (stereo not shown) ?
RESULT: not satisfied

QUERY: Input "C[C@H](C(=O)O)c1ccc(N2Cc3ccccc3C2=O)cc1" ; condition: EC50 strictly below 200 nM. Does it hold?
RESULT: not satisfied

QUERY: Record "CC(C)c1ccc(N2Cc3cccc(OC(F)F)c3C2=O)cc1" : is its EC50 strictly below 200 nM?
RESULT: not satisfied
